Provenance of the data: PubChem BioAssay AID1259427

# target: Aedes aegypti neuropeptide Y-like receptor 7 (NPYLR7)
# assayProtocol: agonists of mosquito NPYLR7 receptor, confirmation, cell-based, Aedes aegypti, hit validation, mosquito biting behavior (AID 1259427);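 note: potency of agonists that activate the receptor and raise the calcium signal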
# cond: HEK293T NPYLR7/Galpha15/GCaMP6s, calcium fluorescence
Active and inactive are the calls of the source.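 Rule for the calls: active = EC50 at or below a set limit, with no effect in the paired counter-screen assay; inactive = the rest.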
quantityMeasured: EC50

Known results for compounds:
COc1ccc(Cl)cc1Nc1nnc(-c2cc3c(ccc4ccccc43)oc2=O)s1 :: > 20 µM (inactive)
COc1ccc(-n2ccnc2-c2ccc(C#CC(C)(C)O)cc2)cn1 :: > 20 µM (inactive)
Nc1nc(Cl)nc2c1ncn2[C@@H]1O[C@H](CO)[C@@H](O)[C@H]1O :: inactive
CC1C(=O)N(c2cccc(F)c2)CCN1C(=O)C1CC1 (stereo unspecified) :: > 20 µM (inactive)
CCOC(=O)N1CCC(NC(=O)c2sc3nc4c(c(C(F)(F)F)c3c2N)CC(C)CC4)CC1 (stereo unspecified) :: > 20 µM (inactive)
CCOC(=O)N1CCN(c2ccc(/C=C(\C#N)c3nc4ccccc4n3C)o2)CC1 :: inactive
O=c1nc2sc3[nH]c(=O)sc3cc-2s1 :: < 0.039 µM (inactive)
N#CC1C(=N)Oc2cc(O)ccc2C1c1ccccc1I (stereo unspecified) :: inactive

Record `CCN(CC)c1ccc2c(-c3ccccc3C(=O)O)c3ccc(=[N+](CC)CC)cc-3oc2c1` . Reported EC50: inactive

Per the records, this compound ( `Cc1ccc(N2C(=O)NC(=O)/C(=C\c3cccs3)C2=O)cc1` ) has EC50 equal to > 20 µM (inactive)

The compound identified as COc1cc(/C=C2\SC(=S)N(C(C)C(=O)O)C2=O)ccc1O (stereo unspecified) registered its EC50 at inactive

* * *

# target: Aedes aegypti neuropeptide Y-like receptor 7 (NPYLR7)
# assayProtocol: agonists of mosquito NPYLR7 receptor, confirmation, cell-based, Aedes aegypti, hit validation, mosquito biting behavior (AID 1259427);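 note: potency of agonists that activate the receptor and raise the calcium signal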
# cond: HEK293T NPYLR7/Galpha15/GCaMP6s, calcium fluorescence
Activity calls are given as the source filed them.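 The calls were made as follows: active = EC50 at or below a set limit, with no effect in the paired counter-screen assay; inactive = the rest.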
EC50 values, listed per item

O=C(O)c1csc(CSc2nnc(-c3ccncc3)n2-c2cccc(C(F)(F)F)c2)n1 :: > 20 µM (inactive)
C[n+]1c2cc(N)ccc2cc2ccc(N)cc21 :: < 0.039 µM (inactive)
O=C1OC2(c3cc(Br)c(O)cc3Oc3c2cc(Br)c(O)[c]3[Hg])c2ccccc21 (stereo not given) :: < 0.039 µM (inactive)

Noted for O=C1NC(c2ccc3c(c2)OCO3)C(C(=O)c2ccccc2)C(O)(C(F)(F)F)N1 (stereo not given) : its EC50 reads > 20 µM (inactive)

* * *

# target: Aedes aegypti neuropeptide Y-like receptor 7 (NPYLR7)
# assayProtocol: agonists of mosquito NPYLR7 receptor, confirmation, cell-based, Aedes aegypti, hit validation, mosquito biting behavior (AID 1259427);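 note: potency of agonists that activate the receptor and raise the calcium signal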
# cond: HEK293T NPYLR7/Galpha15/GCaMP6s, calcium fluorescence
Activity calls are given as the source filed them.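 Rule for the calls: active = EC50 at or below a set limit, with no effect in the paired counter-screen assay; inactive = the rest.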
Please reply with one of these outcomes: active, inactive

Sample answers from the record:
O=P1(Nc2cc(C(F)(F)F)ccc2Cl)C=C(c2ccccc2)OC(c2ccccc2)=C1 :: inactive
O=C(CNCc1ccccc1)N1CC(=O)N(c2cccc(Cl)c2)C1 :: inactive
CC(C)C(=O)Nc1sc2c(c1-c1nc3ccccc3s1)CCN(C)C2 :: inactive
CCOC=C(C#N)c1nc(C)cs1 :: inactive

# input How was CC(C)COCC(O)CN(Cc1cccn1C)CC1CCCO1 (stereo not drawn) classified in this test?
# output inactive

# input For `Cc1nc(=O)c(-c2ccccc2)c(C)n1-c1ccccc1O` , which call appears in the assay record?
# output inactive

# input For `CCN1CCc2c(sc(NC(=O)c3ccccc3)c2-c2nc3ccccc3s2)C1` , what call appears in the results of this test?
# output inactive

# input So what was the verdict on `CCN1CCN(Cc2c(O)cc(C)c3c2O/C(=C\c2ccco2)C3=O)CC1` in this test?
# output inactive

# input What was the test verdict on `CCN(CC)c1ccc(/C=C2\SC(=S)N(CCS(=O)(=O)O)C2=O)cc1` ?
# output inactive

# input So what was the verdict on `N#Cc1cc(C(=O)c2cc(Cl)cc(Cl)c2O)cn(-c2nccs2)c1=O` in this test?
# output active

# input Assay result, entry `C[C@H](O)C(=O)C1=Nc2c(nc(N)[nH]c2=O)NC1` — outcome?
# output inactive

# input Test call for this compound, please: `CCCCCn1c(=O)c2c(nc3n2CCN3c2cc(C)cc(C)c2)n(C)c1=O`
# output inactive

# input What did the test return for `O=C(CSc1cn(CC(=O)N2CCCCCC2)c2ccccc12)NC1CCCC1` ?
# output inactive

# input Name the outcome recorded for `O=c1[nH]c(CCl)nc2sc3c(c12)CCN(Cc1ccccc1)C3` in the assay.
# output inactive

# input Could you please tell me the result logged for `O=C1NC(=NS(=O)(=O)c2ccccc2)SC1=Cc1cc([N+](=O)[O-])ccc1O` in this assay?
# output inactive

# input Test call, this compound: `COc1ccc(-n2ccnc2-c2nc(-c3cccs3)oc2C)cn1`
# output inactive

# input What is the recorded call for this compound in the test? CC(C)NCC(O)c1ccc(O)c(O)c1 (stereo not drawn)
# output inactive

# input For `CCOC(=O)c1ccc(N=c2oc3cc(O)ccc3cc2-c2nc3ccccc3[nH]2)cc1` , what call appears in the results of this test?
# output inactive

# input Please share the test call associated with `CCN1C(=Cc2ccc3cc(C)ccc3[n+]2CC)Sc2ccccc21` .
# output inactive

# input Dear colleague, could you share the recorded outcome for `Cc1[nH]c(/C=C2\C(=O)Nc3ccccc32)c(C)c1CCC(=O)O` when you have a moment?
# output inactive

* * *

# Lookup of reported EC50 keyed by entry
# target: Aedes aegypti neuropeptide Y-like receptor 7 (NPYLR7)
# assayProtocol: agonists of mosquito NPYLR7 receptor, confirmation, cell-based, Aedes aegypti, hit validation, mosquito biting behavior (AID 1259427);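 note: potency of agonists that activate the receptor and raise the calcium signal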
# cond: HEK293T NPYLR7/Galpha15/GCaMP6s, calcium fluorescence
Active and inactive are the calls of the source.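 The calls were made as follows: active = EC50 at or below a set limit, with no effect in the paired counter-screen assay; inactive = the rest.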

Worked cases, EC50 given:
COc1ccc(CN2CCN(Cc3cccn3-c3ncccn3)CC2CCO)c(C)c1C (stereo not given) :: > 20 µM (inactive)
COc1ccccc1Oc1nc2ccccn2c(=O)c1/C=C(\C#N)c1nc2ccccc2s1 :: > 20 µM (inactive)

// EC50 lookup, molecule = `CCOC(=O)c1c(-c2ccccc2)csc1N=Cc1nc(-c2ccco2)oc1O` , result: > 20 µM (inactive)

Lab note: `CCCS(=O)(=O)N1CCN=C1SCc1ccccc1C` gave EC50 of > 20 µM (inactive)

Note to self: EC50 recorded for COc1ccc(S(=O)(=O)NCC2CCCN(C(=O)CSc3ccccc3)C2)cc1 (stereo not given) was 11.3 µM

* * *

# target: Aedes aegypti neuropeptide Y-like receptor 7 (NPYLR7)
# assayProtocol: agonists of mosquito NPYLR7 receptor, confirmation, cell-based, Aedes aegypti, hit validation, mosquito biting behavior (AID 1259427);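 note: potency of agonists that activate the receptor and raise the calcium signal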
# cond: HEK293T NPYLR7/Galpha15/GCaMP6s, calcium fluorescence
The source made the active and inactive calls.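 How the source made its calls: active means EC50 at or below a set limit, with no effect in the paired counter-screen assay; inactive means the rest.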
Respond only with the outcome that fits, drawn from active, inactive

CN(C)c1ccc(/C=C2/SC(=S)N(CC(=O)O)C2=O)cc1Br :: inactive
O=C1/C(=C/c2cc3ccccc3o2)Oc2c1ccc(O)c2CN1CCN(CCO)CC1 :: inactive
Nc1c(S(=O)(=O)O)cc2c3c(cccc13)C(=O)N(CCO)C2=O :: inactive

# input Write down the call the test reported for this compound. Item: `CCN1CCc2c(sc(NC(=O)C3=COCCO3)c2-c2nc3ccccc3s2)C1`
# output inactive

* * *

# target: Aedes aegypti neuropeptide Y-like receptor 7 (NPYLR7)
# assayProtocol: agonists of mosquito NPYLR7 receptor, confirmation, cell-based, Aedes aegypti, hit validation, mosquito biting behavior (AID 1259427);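 note: potency of agonists that activate the receptor and raise the calcium signal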
# cond: HEK293T NPYLR7/Galpha15/GCaMP6s, calcium fluorescence
The source made the active and inactive calls.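 The calls were made as follows: active = EC50 at or below a set limit, with no effect in the paired counter-screen assay; inactive = the rest.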
Returns: one label drawn from TRUE = active, FALSE = inactive

C=C(C)Cn1c(C(=O)N2CCN(C(=O)CCC(=O)OCC)C(C)C2)cc2ccoc21 (stereo not given) :: TRUE
CCN(CC)c1ccc2cc(C(N)=O)/c(=N\NC(N)=S)oc2c1 :: FALSE
O=C1NC(=O)C2=Cc3ccc(O)cc3OC2(O)N1 (stereo not given) :: FALSE
COc1cc(OC)c(C2=NOC3(CC(=O)N(c4cccc(Cl)c4)C3=O)C2)cc1OC (stereo not given) :: FALSE

# input Record request — test call for `NCCNc1ccc2c3c(cccc13)C(=O)N(c1ccc(Cl)cc1)C2=O`
# output FALSE

* * *

# target: Aedes aegypti neuropeptide Y-like receptor 7 (NPYLR7)
# assayProtocol: agonists of mosquito NPYLR7 receptor, confirmation, cell-based, Aedes aegypti, hit validation, mosquito biting behavior (AID 1259427);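 note: potency of agonists that activate the receptor and raise the calcium signal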
# cond: HEK293T NPYLR7/Galpha15/GCaMP6s, calcium fluorescence
Active and inactive are the calls of the source.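 How the source made its calls: active means EC50 at or below a set limit, with no effect in the paired counter-screen assay; inactive means the rest.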
quantityMeasured: EC50

FC(F)(F)c1cc(-c2cccs2)nc2ncnn12 :: > 20 µM (inactive)
O=C(O)c1ccccc1-c1c2cc(Br)c(=O)cc-2oc2[c]([Hg])c(O)c(Br)cc12 :: < 0.039 µM (inactive)
Nc1nc(Cl)nc2c1ncn2[C@@H]1O[C@H](COP(=O)(O)OP(=O)(O)OP(=O)(O)O)[C@H](O)C1O (stereo not given in full) :: < 0.039 µM (inactive)
CC(=O)Oc1ccc(Cn2c(C)c(C(=O)NCc3ccc(C#N)cc3)sc2=O)cc1 :: > 20 µM (inactive)
CSc1nnc2c(n1)OC(c1ccc(OC(=O)c3ccc(Br)cc3)cc1)Nc1ccccc1-2 (stereo not given) :: > 20 µM (inactive)

The recorded EC50 for `O=[N+]([O-])c1c[n+]([O-])n(-c2cccc(Cl)c2)n1` is > 20 µM (inactive)

Value of measured EC50 for the entry `CCOc1ccc(C(=O)Nc2sc3c(c2-c2nc4ccccc4s2)CCN(C)C3)cc1` : > 20 µM (inactive)

Lab book: EC50 of COc1cc(C(=O)N2CCOC(c3ccccc3)C2)cc(OC)c1C (stereo not given) noted as > 20 µM (inactive)

Given item `O=C(CN1C(=O)SC(=Cc2ccc(N3CCCCCC3)o2)C1=O)N1CCCCCC1` , the value recorded as its EC50 is > 20 µM (inactive)

Summary for this compound, `COC(=O)C1CCN(S(=O)(=O)c2c(F)cc(F)cc2Br)CC1` : EC50 is > 20 µM (inactive)
